# Assayed Target: IGF-1 (Homo sapiens)
# Construct: made in house
# Experiment: Affinity measurement by monovalent phage ELISA (phage competition IC50)
# Format: binding
# Settings: positive second generation clones
Measured IC50 of individual entries
Response body: numeric value in µM, unit text excluded.

Example entries and their recorded answers appear below.
Substance	IC50 [µM]
F2-B (VRCAYDAGGSRYCWE; Sequence is synthesized) [Peptide F2-B]	24.6
F2-F (FRCAWELGWLYVLGL; Sequence is synthesized) [Peptide F2-F]	209

// moving on: another record for IC50
input: Recorded IC50 for F1-F (FECLTSVEALRGCMY; Sequence is synthesized) [Peptide F1-F] , please?
output: 0.286

----------
# Assayed Target: IGF-1 (Homo sapiens, UniProt P05019)
# Construct: made in house
# Sequence (P05019 49-118 limits assumed): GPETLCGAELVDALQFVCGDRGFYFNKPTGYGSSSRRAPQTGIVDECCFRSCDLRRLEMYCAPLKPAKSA
# Experiment: Affinity measurement by monovalent phage ELISA (phage competition IC50)
# Format: binding
# Settings: positive second generation clones
Listing: pIC50 of selected substances
The read-out pIC50 is expressed as -log10 of concentration in moles per litre.

// known answers, use as guide
Substance	pIC50
F1-A (HPCLESVGALKACMY; Sequence is synthesized) [Peptide F1-A]	6.40
F2-C (VKCARDLSGFVYCWA; Sequence is synthesized) [Peptide F2-C]	2.00
F2-I (VTCAADALGFLYCWE; Sequence is synthesized) [Peptide F2-I]	5.99
F2-L (ARCARDAGGFYYCWA; Sequence is synthesized) [Peptide F2-L]	5.36
F1-E (SDCFGSVEALKMCMY; Sequence is synthesized) [Peptide F1-E]	6.15
F2-D (VRCAWDLGGRAYCWA; Sequence is synthesized) [Peptide F2-D]	3.60
F2-G (ASCVADAGGGGYCWD; Sequence is synthesized) [Peptide F2-G]	6.01
F1-B (FGCYESVAALRTCMY; Sequence is synthesized) [Peptide F1-B]	6.52

input: Item under review: F2-J (LRCAEDLGGYFYCWA; Sequence is synthesized) [Peptide F2-J] . Reported pIC50?
output: 5.67

input: Entry to check: F2-M (WRCAQDAGGWTYCWA; Sequence is synthesized) [Peptide F2-M]
output: 5.98

input: Repeat for the following substance: F2-K (YRCATDLAGFSYCWA; Sequence is synthesized) [Peptide F2-K]
output: 5.84

----------
# Assayed Target: IGF-1 (Homo sapiens, UniProt P05019)
# Construct: made in house
# Experiment: Affinity measurement by monovalent phage ELISA (phage competition IC50)
# Assay type: binding
# Settings: positive second generation clones
# IC50 annotations
Report as a plain number; the unit nM is understood.

Some substances with recorded IC50:
Substance	Assayed Target	Unit String	Numeric Result
F1-C (RNCFESVAALRRCMY; Sequence is synthesized) [Peptide F1-C]	IGF-1 (Homo sapiens, UniProt P05019)	nM	108
F1-H (MDCLASVEALKWCMY; Sequence is synthesized) [Peptide F1-H]	IGF-1 (Homo sapiens, UniProt P05019)	nM	147

Kindly consider the entry below.
input: I am curious: what IC50 value has been reported for F2-H (WRCVDDLGGFQYCWA; Sequence is synthesized) [Peptide F2-H] ?
output: 319

----------
# Assayed Target: IGF-1 (Homo sapiens)
# Construct: made in house
# Experiment: Affinity measurement by monovalent phage ELISA (phage competition IC50)
# Assay type: binding
# Settings: positive second generation clones
Reported pIC50 values follow for various substances
# reply with the number alone; pIC50 is -log10 of concentration in mol/L

Record excerpt, results attached:
Substance	pIC50
F2-A (GGCASDLAGFRYCWE; Sequence is synthesized) [Peptide F2-A]	5.88
F1-G (SDCFESVEALRACMY; Sequence is synthesized) [Peptide F1-G]	6.01
F2-E (LGCASDLAGFWYCWA; Sequence is synthesized) [Peptide F2-E]	6.26

As a next step, examine the substance that follows.
input: IGF-1 (Homo sapiens) / pIC50 / F2-N (WRCVTDAGGRPYCWA; Sequence is synthesized) [Peptide F2-N] : value?
output: 5.93
